Answer each item with its documented IC50.
system: HeLa, human cervical carcinoma cell line; assay: MTT cytotoxicity; assay type: cell-based; conditions: Homo sapiens
*1 amine or outer side, *2 acyl side, *3 side chain or, on linkers, in order; H or OH if unused. Where a SMILES comes first, the peptide text is derived from it. [ ]: non-standard residue; d: D form. ξ: configuration not given here. Tyr(3-NO2) = N[CH](Cc1ccc(O)c([N+](=O)[O-])c1)C(=O)O; X1 = CC(C)(C1CO1)n1cc(CC(N[*:1])C(=O)[*:2])c2ccccc21; ξNle(4,5-dehydro) = CC=CCC(N)C(=O)O; NMeL = CN[CH](CC(C)C)C(=O)O
Numbers only, in µM.

[
  {
    "compound": "CC=CCC1NC(=O)C(CC(C)C)N2C(=O)C(CC(C)C2O)N(C)C(=O)C(C)NC(=O)C(Cc2ccc(O)c([N+](=O)[O-])c2)NC(=O)C(CC(C)C)N(C)C(=O)C(Cc2cn(C(C)(C)C3CO3)c3ccccc23)NC1=O (stereo not shown) [3/4]",
    "units_text": "µM",
    "IC50": 3.3
  },
  {
    "compound": "CC=CCC1NC(=O)C(CC(C)C)NC(=O)C(CC(C)C)N(C)C(=O)C(C)NC(=O)C(Cc2ccc(O)c([N+](=O)[O-])c2)NC(=O)C(CC(C)C)N(C)C(=O)C(Cc2cn(C(C)(C)C3CO3)c3ccccc23)NC1=O (stereo not shown) [compound 2, ilamycin B2] (cyclo([ξNle(4,5-dehydro)][X1][NMeL][Tyr(3-NO2)]A[NMeL]L); configuration not given here)",
    "units_text": "µM",
    "IC50": 7.1
  },
  {
    "compound": "COc1cccc2c1C(=O)c1c(O)c3c(c(O)c1C2=O)C[C@@](O)(C(=O)CO)C[C@@H]3O[C@H]1C[C@H](N)[C@H](O)[C@H](C)O1 [Dox, Doxorubicin, reference compound]",
    "units_text": "µM",
    "IC50": 0.98
  }
]

Please look up its IC50: C=CC(C)(C)n1cc(C[C@@H]2NC(=O)[C@H](C/C=C/C)NC(=O)[C@H](CC(C)C)N3C(=O)[C@H](C[C@H](C)C3O)N(C)C(=O)[C@H](C)NC(=O)[C@H](Cc3ccc(O)c([N+](=O)[O-])c3)NC(=O)[C@H](CC(C)C)N(C)C2=O)c2ccccc21 (stereo partly shown) [6/7] 3.9

* * *

system: Enterococcus faecalis ATCC29212; assay: Antibacterial broth dilution MIC; type: cell-based
*1 amine or outer side, *2 acyl side, *3 side chain or, on linkers, in order; H or OH if unused. Where a SMILES comes first, the peptide text is derived from it. [ ]: non-standard residue; d: D form. ξ: configuration not given here. Trp(1-(1,1-Me2-allyl)) = C=CC(C)(C)n1cc(C[C@H](N)C(=O)O)c2ccccc21; Tyr(3-NO2) = N[CH](Cc1ccc(O)c([N+](=O)[O-])c1)C(=O)O; X1 = CC(C)(C1CO1)n1cc(CC(N[*:1])C(=O)[*:2])c2ccccc21; Gly(E-crotyl) = C/C=C/C[C@H](N)C(=O)O; ξNle(4,5-dehydro) = CC=CCC(N)C(=O)O; NMeL = CN[CH](CC(C)C)C(=O)O
Answer each item with its documented MIC.

[
  {
    "compound": "C=CC(C)(C)n1cc(C[C@@H]2NC(=O)[C@H](C/C=C/C)NC(=O)[C@H](CC(C)C)NC(=O)[C@H](CC(C)C)N(C)C(=O)[C@H](C)NC(=O)[C@H](Cc3ccc(O)c([N+](=O)[O-])c3)NC(=O)[C@H](CC(C)C)N(C)C2=O)c2ccccc21 [compound 1, ilamycin B1] (cyclo(A[NMeL]L[Gly(E-crotyl)][Trp(1-(1,1-Me2-allyl))][NMeL][Tyr(3-NO2)]))",
    "MIC": "> 126 µM"
  },
  {
    "compound": "CC=CCC1NC(=O)C(CC(C)C)NC(=O)C(CC(C)C)N(C)C(=O)C(C)NC(=O)C(Cc2ccc(O)c([N+](=O)[O-])c2)NC(=O)C(CC(C)C)N(C)C(=O)C(Cc2cn(C(C)(C)C3CO3)c3ccccc23)NC1=O (stereo not drawn) [compound 2, ilamycin B2] (cyclo([ξNle(4,5-dehydro)][X1][NMeL][Tyr(3-NO2)]A[NMeL]L); configuration not given here)",
    "MIC": "> 124 µM"
  }
]

# evaluate next
Fill in the recorded MIC for this compound, with Enterococcus faecalis ATCC29212 as test system: CC=CCC1NC(=O)C(CC(C)C)N2C(=O)C(CC(C)C2O)N(C)C(=O)C(C)NC(=O)C(Cc2ccc(O)c([N+](=O)[O-])c2)NC(=O)C(CC(C)C)N(C)C(=O)C(Cc2cn(C(C)(C)C3CO3)c3ccccc23)NC1=O (stereo not drawn) [3/4] > 123 µM

* * *

system: A549, human lung cancer cell line; experiment: MTT cytotoxicity; type: cell-based
property_name: pIC50
Give bare numbers, as −log10 of the molar value.

Fill in the recorded pIC50 for this molecule, with A549, human lung cancer cell line as test system: N.N.[Cl][Pt][Cl] [Cis, Cisplatin, reference compound] 5.03

* * *

Answer each item with its documented IC50.
system: A549, human lung cancer cell line; assay: MTT cytotoxicity; format: cell-based; conditions: Homo sapiens
Answers are plain numbers, in µM.

[
  {
    "molecule": "COc1cccc2c1C(=O)c1c(O)c3c(c(O)c1C2=O)C[C@@](O)(C(=O)CO)C[C@@H]3O[C@H]1C[C@H](N)[C@H](O)[C@H](C)O1 [Dox, Doxorubicin, reference compound]",
    "target_or_test_system": "A549, human lung cancer cell line",
    "quantitative_readout": 3.4
  },
  {
    "molecule": "C=CC(C)(C)n1cc(C[C@@H]2NC(=O)[C@H](C/C=C/C)NC(=O)[C@H](CC(C)C)N3C(=O)[C@H](C[C@H](C)C3O)N(C)C(=O)[C@H](C)NC(=O)[C@H](Cc3ccc(O)c([N+](=O)[O-])c3)NC(=O)[C@H](CC(C)C)N(C)C2=O)c2ccccc21 (stereo partly shown)",
    "target_or_test_system": "A549, human lung cancer cell line",
    "quantitative_readout": 6.2
  }
]

# evaluate next
Please look up its IC50: CC=CCC1NC(=O)C(CC(C)C)N2C(=O)C(CC(C)C2O)N(C)C(=O)C(C)NC(=O)C(Cc2ccc(O)c([N+](=O)[O-])c2)NC(=O)C(CC(C)C)N(C)C(=O)C(Cc2cn(C(C)(C)C3CO3)c3ccccc23)NC1=O (stereo not shown) 3.5

* * *

Test system: Acinetobacter baumanii ATCC19606
Assay: Antibacterial broth dilution MIC
Format: cell-based
Conditions: Acinetobacter baumannii, ATCC19606
Experimental: To determine the antibacterial activities of these eight compounds (1–8), a preliminary screening of their antibacterial activities against a panel of Gram-positive and Gram-negative bacteria[6]–[8], M. smegmatis MC^2 155 and M. tuberculosis H37Rv, was conducted using a broth dilution method, [59]. Compounds 1–8 were dissolved in dimethylsulfoxide (DMSO) to give 3200 μg mL^−1 stock solutions. […]
*1 amine or outer side, *2 acyl side, *3 side chain or, on linkers, in order; H or OH if unused. Where a SMILES comes first, the peptide text is derived from it. [ ]: non-standard residue; d: D form. ξ: configuration not given here. Trp(1-(1,1-Me2-allyl)) = C=CC(C)(C)n1cc(C[C@H](N)C(=O)O)c2ccccc21; NMeGlu(4S-Me) = C[C@@H](C[C@@H](C(=O)[*:2])N(C)[*:1])C(=O)[*:3]; Tyr(3-NO2) = N[CH](Cc1ccc(O)c([N+](=O)[O-])c1)C(=O)O; X1 = CC(C)(C1CO1)n1cc(CC(N[*:1])C(=O)[*:2])c2ccccc21; X2 = CC(CC(C(=O)[*:2])N(C)[*:1])C(=O)O; Gly(E-crotyl) = C/C=C/C[C@H](N)C(=O)O; ξNle(4,5-dehydro) = CC=CCC(N)C(=O)O; NMeL = CN[CH](CC(C)C)C(=O)O
property_name: MIC (µM)
Give bare numbers, in µM.

Example results:
[
  {
    "compound": "C=CC(C)(C)n1cc(C[C@@H]2NC(=O)[C@H](C/C=C/C)NC(=O)[C@H](CC(C)C)NC(=O)[C@H](C[C@H](C)C(=O)O)N(C)C(=O)[C@H](C)NC(=O)[C@H](Cc3ccc(O)c([N+](=O)[O-])c3)NC(=O)[C@H](CC(C)C)N(C)C2=O)c2ccccc21 [compound 8, ilamycin F] (cyclo(A[NMeGlu(4S-Me)]L[Gly(E-crotyl)][Trp(1-(1,1-Me2-allyl))][NMeL][Tyr(3-NO2)]))",
    "MIC / µM": 123
  },
  {
    "compound": "CC=CCC1NC(=O)C(CC(C)C)NC(=O)C(CC(C)C(=O)O)N(C)C(=O)C(C)NC(=O)C(Cc2ccc(O)c([N+](=O)[O-])c2)NC(=O)C(CC(C)C)N(C)C(=O)C(Cc2cn(C(C)(C)C3CO3)c3ccccc23)NC1=O (stereo not drawn) [compound 5, ilamycin D] (cyclo([X2]L[ξNle(4,5-dehydro)][X1][NMeL][Tyr(3-NO2)]A); configuration not given here)",
    "MIC / µM": 121
  }
]

# evaluate next
Fill in the recorded MIC for this compound, with Acinetobacter baumanii ATCC19606 as test system: CC=CCC1NC(=O)C(CC(C)C)NC(=O)C(CC(C)C)N(C)C(=O)C(C)NC(=O)C(Cc2ccc(O)c([N+](=O)[O-])c2)NC(=O)C(CC(C)C)N(C)C(=O)C(Cc2cn(C(C)(C)C3CO3)c3ccccc23)NC1=O (stereo not drawn) [compound 2, ilamycin B2] (cyclo([ξNle(4,5-dehydro)][X1][NMeL][Tyr(3-NO2)]A[NMeL]L); configuration not given here) 124
